Attribute: growth
- System: DU-145 prostate
- METHOD: NCI-60 one-dose screen, 48 h (100 = growth as untreated, 0 = no growth, -100 = all killed)
- EXPERIMENTAL_SETUP: 10 µM unless noted
About 83,000 compounds went through this panel and 20% of them were active in at least one assay; those are over-represented in the sample as a whole. Activity calls are given as the source filed them. Rule for the calls: active = growth percent below 10; inactive = the rest.

Study these solved cases before continuing.
- MOLECULE: "CC1(C)[C@@H](O[C@@H]2OC[C@@H](O[C@@H]3O[C@H](CO)[C@@H](O)[C@H](O)[C@H]3O[C@@H]3OC[C@@H](O)[C@H](O)[C@H]3O)[C@H](O)[C@H]2O[C@@H]2O[C@H](CO)[C@@H](O)[C@H](O)[C@H]2O)CC[C@]2(C)[C@H]3CC[C@]45OC[C@@]6(CC[C@](C)(C=O)C[C@H]64)[C@H](O)C[C@@]5(C)[C@]3(C)CC[C@@H]12"
  SYSTEM_NAME: "DU-145 prostate"
  growth: "-82.1% (active)"
- MOLECULE: "NC(=O)c1cnc(Nc2cccc(N)c2)nc1NCCCNC(=O)C1CCC1"
  SYSTEM_NAME: "DU-145 prostate"
  growth: "75.9% (inactive)"
- MOLECULE: "O=C1Nc2ccccc2/C1=C\\c1c[nH]c2ccc(Br)cc12"
  SYSTEM_NAME: "DU-145 prostate"
  growth: "89.7% (inactive)"
- MOLECULE: "COc1cc2c(c(OC)c1OC)C(=O)CC(c1cccc(NC(=O)c3ccc(C#N)cc3)c1)O2 (centres undefined)"
  SYSTEM_NAME: "DU-145 prostate"
  growth: "83.6% (inactive)"
- MOLECULE: "CN1C(=O)/C(=C2\\SC(=Nc3ccccc3)N(Nc3ccccc3)C2=O)c2ccccc21"
  SYSTEM_NAME: "DU-145 prostate"
  growth: "109% (inactive)"

Record summary for COC(=O)CCC/C=C\C[C@H]1C=CC(=O)/C1=C/C[C@@H](O)C/C=C\CC(F)(F)F : reported growth = 24.9% (inactive)

Record summary for COc1cc2nc3sc(C(=O)Nc4ccc(C(=O)OC(C)C)cc4)c(C(=O)Nc4ccc(Cl)cc4C)n3c(=O)c2cc1OC : reported growth = 13.2% (inactive)

Record summary for COc1cccc(/C=C/C(=O)c2cccc(Nc3nc(Nc4ccccc4)nc(Nc4ccccc4)n3)c2)c1 : reported growth = 85.5% (inactive)

Record summary for N#Cc1ccc(O)c(C2=NCC(Cc3ccccc3)O2)c1 (centres undefined) : reported growth = 55.7% (inactive)
